# test-system: Regulator of G-protein signaling 4 (Homo sapiens)
# run-description: blockers of RGS4 function in M3R calcium signaling – cell-based, HEK293 M3R inducible RGS4, calcium flux, primary screen (AID 463165);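 note: RGS4 expression induced by doxycycline in cells with stable M3 receptor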
# experimental-context: Fluo-4 calcium flux, at 10 µM, triggered by carbachol at its EC20
The campaign covered roughly 310,000 compounds. About 1,400 (0.45%) were called active.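 Rule for the calls: active = B-score, a plate-corrected calcium signal, over three deviations above library mean, with baseline fluorescence within five deviations of library mean; inactive = the rest.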 This is one part of a sample in which actives are shown more often than they occur.
Give your call using only these classes: active, inactive

Take a look at these entries with their results.
>>> classification("C=CCNC(=O)CCCC(=O)NCC=C")
"inactive"
>>> classification("Cn1c(SCC(=O)N2CCCC2)nnc1-c1cccs1")
"inactive"
>>> classification("Cc1ccc(NC(=O)N2CCC(c3nc4c(nnn4Cc4c(F)cccc4Cl)c(=O)[nH]3)CC2)cc1")
"inactive"
>>> classification("Nc1ccccc1/C=N\\N=C/c1ccccc1N")
"inactive"
>>> classification("O=C(O)c1ccc2c(=O)n3c(nc2c1)/C(=C/c1ccc(OC(F)F)cc1OC(F)F)CC3")
"inactive"

Request: For COc1ccc(C(F)(F)F)cc1N/C=C\c1nnnn1-c1ccc(C)cc1 , which call appears in the assay record?
Result: inactive

Request: For N#Cc1ccc(/C=C2\CCn3c2nc2cc(C(=O)O)ccc2c3=O)cc1 , which call appears in the assay record?
Result: inactive

Request: For Cc1ccc(C)c(Cn2nnc3c(=O)[nH]c(C(=O)Nc4ccc(F)cc4)nc32)c1 , which call appears in the assay record?
Result: active

Request: For Cc1ccc2c(c1)N(CC(=O)NCCc1ccc(Cl)cc1)C(=O)c1cccnc1O2 , which call appears in the assay record?
Result: inactive

Request: For O=C(Nc1ccc(F)cc1)N1CCCC(c2nc3c(nnn3Cc3ccccc3Cl)c(=O)[nH]2)C1 (stereo unspecified) , which call appears in the assay record?
Result: inactive

Request: For CC(Oc1ccccc1)C(=O)Nc1c2c(nn1-c1ccccc1)CS(=O)C2 (stereo unspecified) , which call appears in the assay record?
Result: inactive
